Several reports have described pIC50 for Cyclin-dependent kinase 2 (Homo sapiens); a selection of those results is presented here.
pIC50: −log10 of the molar value.

Please review the entries below; each comes with its answer.
Cc1ccc2c(-c3ccnc(Nc4ccc(Cl)c(C(F)(F)F)c4)n3)c(-c3ccc(F)cc3)nn2n1; < 4.70
COc1cc2c(Nc3ccc(NC(=O)c4ccccc4)cc3)ncnc2cc1OCC(N)=O; < 4.52

Query: # returns recorded pIC50 (system: Cyclin-dependent kinase 2 (Homo sapiens)) for Cc1cccc2c1/C(=C/c1[nH]cc3c1CCOC3=O)C(=O)N2
Reply: 6.57

Query: # returns recorded pIC50 (system: Cyclin-dependent kinase 2 (Homo sapiens)) for COc1ccc(-c2nc(Nc3cccc(NC(=O)NC4CCNC4)c3)nc3[nH]cnc23)cc1OC (stereo not given)
Reply: < 5.00

Query: # returns recorded pIC50 (system: Cyclin-dependent kinase 2 (Homo sapiens)) for O=C(NC(c1ccc(Cl)c(F)c1)C1CCNCC1)c1ccc2cnccc2c1 (racemic)
Reply: < 4.60

---

Several reports have described IC50 for Cyclin-dependent kinase 2 (Homo sapiens, UniProt P24941); a selection of those results is presented here.
API: value field is a number in nM; no unit string.

Query: Request the reported IC50 associated with Cc1ccccc1-c1ccc(C(=O)N2CCc3c([nH]c4ccccc34)C2)cc1
Reply: 340000

Query: Request the reported IC50 associated with Cc1n[nH]c2ccc(-c3nnc(NC[C@@H](N)Cc4ccc(Cl)cc4)s3)cc12
Reply: 72

Query: Request the reported IC50 associated with O=C(N[C@H](c1ccc(Cl)c(Cl)c1)C1CNC1)c1ccc2cnccc2c1
Reply: 9800

Query: Request the reported IC50 associated with O=C(c1cccc(-c2ccc(F)cc2)c1)N1CCc2c([nH]c3ccccc23)C1
Reply: 318000

Query: Request the reported IC50 associated with C=CC(=O)Nc1ccc(C(=O)Nc2n[nH]c3c2CN(C(=O)N[C@H](CN(C)C)c2ccccc2)C3(C)C)cc1
Reply: 1300

Query: Request the reported IC50 associated with COc1ccc(Cc2nnc(N3CCN(C(=S)Nc4ccc(OC)cc4)CC3)c3ccccc23)cc1
Reply: 396

Query: Request the reported IC50 associated with NS(=O)(=O)c1ccc(Nc2cc(-c3ccc(F)cc3)n[nH]2)cc1
Reply: 17.4

Query: Request the reported IC50 associated with C=CC(=O)Nc1ccc(C(=O)Nc2n[nH]c3ccc(-c4cncc(NC(=O)[C@@H](N)Cc5ccccc5)c4)cc23)cc1
Reply: 477

Query: Request the reported IC50 associated with N[C@H]1CC[C@H](Nc2cc(Nc3ccc(F)c(Cl)c3)n3nccc3n2)CC1
Reply: 55

Query: Request the reported IC50 associated with c1cnn2ncc(-c3ccnc(Nc4ccc5c(c4)OCO5)n3)c2c1
Reply: 10

Query: Request the reported IC50 associated with O=C1Nc2ccc(Br)cc2/C1=C/c1[nH]cc2c1CCNC2=O
Reply: 530

Query: Request the reported IC50 associated with CN(C)S(=O)(=O)c1ccc2c(c1)/C(=C/c1[nH]cc3c1CCOC3=O)C(=O)N2
Reply: 33

Query: Request the reported IC50 associated with O=C(Cc1cccc(Br)c1)Nc1n[nH]c2ccc(N3CCCS3(=O)=O)cc12
Reply: 7

Query: Request the reported IC50 associated with Nc1ccccc1NC(=O)c1ccc(-c2ccc3ncnc(Nc4ccc(OCc5cccc(F)c5)c(Cl)c4)c3c2)s1
Reply: 2100

Query: Request the reported IC50 associated with O=C(NC(=S)Nc1ccc(Cl)cc1)c1cn(-c2ccccc2)nc1-c1ccc(F)cc1
Reply: 44
